Test system: UACC-257 melanoma
Assay: NCI tumour cell line growth inhibition, 48 h
measure: TGI (µM)

>>> recorded_value("CN(C)CCCn1c(=O)c2ccccc2c2cnc3[nH]ccc3c21")
5.59
>>> recorded_value("CCSC1=CC2(O)N(CCc3ccc(OC)c(OC)c3)C(=O)CC2(C(=O)OC)CC1=O (stereo not given)")
34.6
>>> recorded_value("C=C1CC(C)(c2cccc(Nc3nc4ccccc4c4occc34)c2)OC1=O (stereo not given)")
3.47

----------
Test system: NCI-H460 lung
Assay: NCI tumour cell line growth inhibition, 48 h
measure: TGI (µM)

>>> recorded_value("CC1CCC2(OC1)OC1C(O)C3C4CCC5CC(OC6OC(CO)C(OC7OC(CO)C(O)C(OC8OCC(O)C(O)C8O)C7OC7OC(CO)C(O)C(OC8OC(CO)C(O)C(O)C8O)C7O)C(O)C6O)C(O)CC5(C)C4CCC3(C)C1C2C (stereo not given)")
3.35
>>> recorded_value("Cc1c2ccncc2c(C)c2c1[nH]c1ccc(OCCN(C)C)cc12")
0.0921
>>> recorded_value("Cc1c([C@H](C)[C@@H]2NC[C@@H](C)C[C@H]2O)ccc2c1C[C@H]1[C@H]2CC=C2C[C@@H](O)CC[C@@]21C")
41.4
>>> recorded_value("C=C1CC(C)(c2cccc(Nc3nc4ccccc4c4occc34)c2)OC1=O (stereo not given)")
33.8
>>> recorded_value("CSc1nc2nc3c(nc2c(=O)n1C)C(=O)c1ccccc1C3=O")
0.393
>>> recorded_value("O=C1CSC(c2ccccc2Cl)N1c1nnc(Cn2cnnc2)o1 (stereo not given)")
43.8
>>> recorded_value("O=C1/C(=C/c2ccc(F)cc2)CN(C(=O)CCN2CCC(=NO)CC2)C/C1=C\\c1ccc(F)cc1")
5.17
>>> recorded_value("Cc1cc(C)c(C#N)c(Sc2nc(C)c([N+](=O)[O-])c(C)c2C#N)n1")
16.2

The reported numbers originate from PubChem BioAssay (NCI).
